Ref: paper PMC13080969

Test: Cytotoxicity assay (resazurin)
Type: cell-based
Settings: human, THP-1 cells, pH 7.4
Method: L. infantum promastigotes were grown at 26 °C in Schneider medium (Sigma), supplemented with 20% heat-inactivated fetal bovine serum (Sigma) and 1% penicillin-streptomycin (Sigma). To ensure maintenance of virulence, the parasites were serially passed through BALB/c mice. […] Cell viability was previously assessed using the Trypan Blue exclusion method. […]
For each entry below, report its CC50 at 72 h value.

Solved entries:
INSERT INTO measurements (compound, result) VALUES
  ('Cc1ccccc1CN1CCC(CN(Cc2cccnc2)Cc2nc(C(C)C)cs2)CC1', '27.8 µM'),
  ('CCCCC(NC1CCN(c2ccccc2F)CC1)c1cccnc1 (centres unmarked)', '157 µM'),
  ('O=C(C(c1cccnc1)N1CCOCC1)N1CCCN(Cc2ccc(F)cc2)CC1 (centres unmarked)', '> 245 µM'),
  ('O=C1OCc2ccc(NC(=O)N3CCCCC3c3cccnc3)cc21 (centres unmarked)', '> 200 µM');

We now examine a further compound.
(Q) Bench note: what CC50 at 72 h did `Cc1ccccc1CN1CCC(CN(Cc2cccnc2)Cc2cc(CC(C)C)[nH]n2)CC1` show?
(A) 35 µM

---

Assay: Cytotoxicity assay (resazurin)
Assay type: cell-based
Details: human, THP-1 cells, pH 7.4
measuredQuantity: CC50 at 72 h

INSERT INTO measurements (compound, result) VALUES
  ('Fc1ccc(N2CCC(NCC(c3cccnc3)N3CCCCC3)CC2)cc1F (stereo not drawn)', '> 100 µM'),
  ('O=C(Cc1ccccc1)NC(c1ccc(Cl)cc1)c1cccnc1 (stereo not drawn)', '> 100 µM'),
  ('OC(COc1ccc(Br)cc1)Cn1ccnc1 (stereo not drawn)', '> 100 µM'),
  ('O=C(Nc1ccc(Cl)cn1)N1CCCCC1c1cccnc1 (stereo not drawn)', '> 200 µM');

Your task in this section: give CC50 at 72 h for each listed record.
1. Cc1cc(F)ccc1N1CCC(NC(Cn2ccnc2)c2ccccc2)CC1 (stereo not drawn)
2. Fc1cccc(CN(Cc2cccnc2)CC2CCCN(C3CCCCC3)C2)c1 (stereo not drawn)

(A)
1. 40.8 µM
2. 32.9 µM

---

Test system: L. infantum promastigotes
Assay: Promastigote assay (resazurin viability)
Type: cell-based, Leishmania infantum
Conditions: Leishmania infantum; 48 h, resazurin; read-out: L. infantum IC50 Promastigotes
measuredQuantity: pIC50
One number for each entry, as −log10 of the molar value.

INSERT INTO assay_data (compound, quantitativereadout) VALUES
  ('Fc1ccc(N2CCC(NCC(c3cccnc3)N3CCCCC3)CC2)cc1F (stereo not drawn)', 5.02);

Your task in this section: give pIC50 for each listed record.
1. O=C(Cc1ccccc1)NC(c1ccc(Cl)cc1)c1cccnc1 (stereo not drawn)
2. O=C1OCc2ccc(NC(=O)N3CCCCC3c3cccnc3)cc21 (stereo not drawn)

(A)
1: 5.50; 2: 4.93

---

Experiment: Mouse liver microsomal stability assay
Format: in vitro ADME
Details: CD1, mouse, mouse liver microsomes, pH 7.4, 0.25 mg/mL protein, read-out: MLM T 1/2
For each entry below, report its half-life at 0.5 μM value.
Numbers only, in h.

INSERT INTO measurements (compound, quantitativereadout) VALUES
  ('Cc1cc(F)ccc1N1CCC(NC(Cn2ccnc2)c2ccccc2)CC1 (centres unmarked)', 0.386);

We now examine a further compound.
(Q) Bench note: what half-life at 0.5 μM did O=C(Nc1ccc(Cl)cn1)N1CCCCC1c1cccnc1 (centres unmarked) show?
(A) 1.7
